Tested on: IMC-1 (IL-2 20 ng/mL)
Experiment: relative IC50 (inflection point of fitted viability curve, relative to fitted max inhibition); higher = less sensitive
Details: 72 h
parameter: relative IC50 (nM)

1. CC(C)[C@H](C(=O)Nc1ccc(C(=O)NO)cc1)c1ccccc1 [AR-42] | 289
2. CO[C@@H](C(=O)N1Cc2[nH]nc(NC(=O)c3ccc(N4CCN(C)CC4)cc3)c2C1)c1ccccc1 [Danusertib] | 312
3. NC(=O)Nc1cc(-c2cccc(F)c2)sc1C(=O)N[C@H]1CCCNC1 [AZD7762] | 353
4. CN(Cc1cnc2nc(N)nc(N)c2n1)c1ccc(C(=O)N[C@@H](CCC(=O)O)C(=O)O)cc1 [Methotrexate] | 26.1

###

System: normal primary NK cells, pool 1 (3 donors) (IL-2 2.5 ng/mL)
Assay: relative IC50 (inflection point of fitted viability curve, relative to fitted max inhibition); higher = less sensitive
Conditions: 72 h
Listing of recorded relative IC50 by entry.
parameter: relative IC50 (nM)

1) C=CCN(/C=C1/C(=O)O[C@H](COC)[C@@]2(C)C1=C(O)C(=O)C1=C2[C@H](OC(C)=O)C[C@]2(C)C(=O)CC[C@@H]12)CC=C [Sonolisib] | 1200
2) Cn1c(CCCC(=O)O)nc2cc(N(CCCl)CCCl)ccc21 [Bendamustine] | 3960
3) CCCc1cc(C)[nH]c(=O)c1CNC(=O)c1cc(-c2ccnc(N3CCN(C)CC3)c2)cc2c1cnn2C(C)C [GSK343] | 2470
4) CC/C(=C(\c1ccc(O)cc1)c1ccc(OCCN(C)C)cc1)c1ccccc1 [4-hydroxytamoxifen] | 3340

###

Tested on: normal primary NK cells, pool 3 (3 donors) (IL-2 2.5 ng/mL)
Experiment: drug sensitivity score (DSS) (DSS units); higher = more sensitive; extreme values may be limits of the assay
Details: 72 h
Quick reference for drug sensitivity score among some compounds
parameter: drug sensitivity score

1) Cn1c(CCCC(=O)O)nc2cc(N(CCCl)CCCl)ccc21 [Bendamustine] (max concentration tested 10000 nM) | 3.81
2) CC(C)Oc1cc(Nc2nc(N[C@@H](C)c3ccc(F)cn3)ncc2Cl)n[nH]1 [AZ-23] (max concentration tested 1000 nM) | 0
3) O=P1(NCCCl)OCCCN1CCCl (stereo unspecified) [Ifosfamide] (max concentration tested 10000 nM) | 0
4) C=C(c1ccc(C(=O)O)cc1)c1cc2c(cc1C)C(C)(C)CCC2(C)C [Bexarotene] (max concentration tested 10000 nM) | 0
5) Nc1ccccc1NC(=O)c1ccc(CNc2nccc(-c3cccnc3)n2)cc1 [Mocetinostat] (max concentration tested 10000 nM) | 12.2
6) C=CCn1c(=O)c2cnc(Nc3ccc(N4CCN(C)CC4)cc3)nc2n1-c1cccc(C(C)(C)O)n1 [MK1775] (max concentration tested 10000 nM) | 1.01
7) CC1(C)NC(=O)N(c2ccc([N+](=O)[O-])c(C(F)(F)F)c2)C1=O [Nilutamide] (max concentration tested 10000 nM) | 0
8) O=C(NOCCO)c1ccc2cncn2c1Nc1ccc(I)cc1F [GDC-0623] (max concentration tested 2500 nM) | 0
9) COc1cc(OC)c(/C=C/S(=O)(=O)Cc2ccc(OC)c(NCC(=O)O)c2)c(OC)c1 [Rigosertib] (max concentration tested 10000 nM) | 0.62
10) CN1CCN(c2nc(C3=C(c4c[nH]c5ccccc45)C(=O)NC3=O)c3ccccc3n2)CC1 [Sotrastaurin] (max concentration tested 10000 nM) | 2.75
11) Cc1csc(-c2nnc(Nc3ccc(Oc4ncccc4-c4ccnc(N)n4)cc3)c3ccccc23)c1 [AMG-900] (max concentration tested 1000 nM) | 0
12) CNC(=O)c1ccccc1Sc1ccc2c(/C=C/c3ccccn3)n[nH]c2c1 [Axitinib] (max concentration tested 10000 nM) | 0.95
13) COc1cc([C@@H]2c3cc4c(cc3[C@@H](O[C@@H]3O[C@@H]5CO[C@@H](C)O[C@H]5[C@H](O)[C@H]3O)[C@H]3COC(=O)[C@H]23)OCO4)cc(OC)c1O [Etoposide] (max concentration tested 10000 nM) | 4.07
14) CNC(=O)c1ccc2cc([C@@]3(O)CCn4cncc43)ccc2c1 [Orteronel] (max concentration tested 10000 nM) | 0
15) NC(=O)c1cccc(-c2cccc(OC(=O)NC3CCCCC3)c2)c1 [URB597] (max concentration tested 1000 nM) | 0
16) CCc1cnn2c(NCc3ccc[n+]([O-])c3)cc(N3CCCC[C@H]3CCO)nc12 [Dinaciclib] (max concentration tested 1000 nM) | 26.6
17) CS(=O)(=O)N1CCN(Cc2cc3nc(-c4cccc5[nH]ncc45)nc(N4CCOCC4)c3s2)CC1 [Pictilisib] (max concentration tested 10000 nM) | 2.3
18) COc1ccc2c(OCc3nnc4ccc(-c5ccccc5)nn34)ccnc2c1 [AMG-208] (max concentration tested 2500 nM) | 0
19) Cc1ccc(C(=O)Nc2ccc(CN3CCN(C)CC3)c(C(F)(F)F)c2)cc1C#Cc1cnc2cccnn12 [Ponatinib] (max concentration tested 1000 nM) | 2.66
20) CN(N=O)C(=O)N[C@@H](C=O)[C@@H](O)[C@H](O)[C@H](O)CO [Streptozocin] (max concentration tested 10000 nM) | 0
21) C[C@@H](C(=O)O)c1ccc(-c2ccccc2)c(F)c1 [Tarenflurbil] (max concentration tested 10000 nM) | 0
22) N#CC1(c2ccc(NC(=O)c3cccnc3NCc3ccncc3)cc2)CCCC1 [Apatinib] (max concentration tested 10000 nM) | 0
23) Cn1cc(C2=C(c3cn(C4CCN(Cc5ccccn5)CC4)c4ccccc34)C(=O)NC2=O)c2ccccc21 [Enzastaurin] (max concentration tested 10000 nM) | 0.87
24) COC(=O)N[C@@H](C)CNc1nccc(-c2cn(C(C)C)nc2-c2cc(Cl)cc(NS(C)(=O)=O)c2F)n1 [Encorafenib] (max concentration tested 1000 nM) | 0
25) O=C(O)c1ccc(-c2c[nH]c3ncc(-c4ccccc4)cc23)cc1C1CCCC1 (max concentration tested 10000 nM) | 1.43
26) CC(C)(C)NC(=O)[C@H]1CC[C@H]2[C@@H]3CC[C@H]4NC(=O)C=C[C@]4(C)[C@H]3CC[C@]12C [Finasteride] (max concentration tested 10000 nM) | 0

###

System: normal NK cells expanded with K562-aAPC
Test: percent inhibition of viability; higher = more inhibition
Details: 72 h; IL-2 2.5 ng/mL; 2500 nM
parameter: percent inhibition of viability (%)

1. COc1ccc(Cl)c(Nc2nc3ccccc3nc2NS(=O)(=O)c2cccc(NC(=O)C(C)(C)N)c2)c1 [Pilaralisib] (max concentration tested 2500 nM) | 13
2. C[C@@H]1CN(CC(=O)Nc2ccc3c(c2)Cc2cccc(-c4cc(=O)cc(N5CCOCC5)o4)c2S3)C[C@H](C)O1 (max concentration tested 25000 nM) | -3.45
3. CC(C)(C)c1nc(-c2cccc(NS(=O)(=O)c3c(F)cccc3F)c2F)c(-c2ccnc(N)n2)s1 [Dabrafenib] (max concentration tested 2500 nM) | 6.4
4. O=C(Nc1cc(Cl)cc2c1[nH]c1cnccc12)c1cccnc1 [PS-1145] (max concentration tested 25000 nM) | -6.16
5. COC[C@H](NC(=O)c1cnc(C)s1)C(=O)N[C@@H](COC)C(=O)N[C@@H](Cc1ccccc1)C(=O)[C@@]1(C)CO1 [Oprozomib] (max concentration tested 2500 nM) | 102

###

Recorded measurements of percent inhibition of viability, one per entry
System: NKL (IL-2 2.5 ng/mL)
Test: percent inhibition of viability; higher = more inhibition
Conditions: 72 h; 2500 nM
parameter: percent inhibition of viability (%)

1) CN[C@@H](C)C(=O)N[C@H](C(=O)N1CCC[C@H]1c1nc(C(=O)c2ccc(F)cc2)cs1)C1CCCCC1 [LCL161] (max concentration tested 25000 nM) | 5.86
2) C[C@@H]1CN(CC(=O)Nc2ccc3c(c2)Cc2cccc(-c4cc(=O)cc(N5CCOCC5)o4)c2S3)C[C@H](C)O1 (max concentration tested 25000 nM) | 24.9
3) CC(=O)OC[C@H]1O[C@@H]([S-])[C@H](OC(C)=O)[C@@H](OC(C)=O)[C@@H]1OC(C)=O.CCP(CC)CC.[Au+] [Auranofin] (max concentration tested 2500 nM) | 106
4) COc1ccc2c(OCc3nnc4ccc(-c5ccccc5)nn34)ccnc2c1 [AMG-208] (max concentration tested 2500 nM) | 1.01
5) CC(C)(C)c1nc(-c2cccc(NS(=O)(=O)c3c(F)cccc3F)c2F)c(-c2ccnc(N)n2)s1 [Dabrafenib] (max concentration tested 2500 nM) | -29.9

###

Entries and their percent inhibition of viability values follow.
System: NK-92 (IL-2 2.5 ng/mL)
Assay: percent inhibition of viability; higher = more inhibition
Conditions: 72 h; 10 nM
parameter: percent inhibition of viability

1. NC(=O)Nc1cc(-c2cccc(F)c2)sc1C(=O)N[C@H]1CCCNC1 [AZD7762] (max concentration tested 1000 nM) | -2.59%
2. C=CCN(/C=C1/C(=O)O[C@H](COC)[C@@]2(C)C1=C(O)C(=O)C1=C2[C@H](OC(C)=O)C[C@]2(C)C(=O)CC[C@@H]12)CC=C [Sonolisib] (max concentration tested 10000 nM) | -6.14%
3. CC/C(=C(\c1ccc(O)cc1)c1ccc(OCCN(C)C)cc1)c1ccccc1 [4-hydroxytamoxifen] (max concentration tested 10000 nM) | -3.77%
4. Nc1ccccc1NC(=O)c1ccc(CNc2nccc(-c3cccnc3)n2)cc1 [Mocetinostat] (max concentration tested 10000 nM) | -10.3%
5. O=C(NC[C@H](O)CO)c1ccncc1Nc1ccc(I)cc1F [Pimasertib] (max concentration tested 10000 nM) | -18.6%
6. Nc1nc(OCc2cc(Br)cs2)c2[nH]cnc2n1 [Lomeguatrib] (max concentration tested 10000 nM) | -17.5%

This collection of values is drawn from the supplement of paper PMC5908809.
